target: Melanocortin receptor 5 (Homo sapiens), P33032; test: competition; conditions: modification not given
Sequence (P33032 whole entry): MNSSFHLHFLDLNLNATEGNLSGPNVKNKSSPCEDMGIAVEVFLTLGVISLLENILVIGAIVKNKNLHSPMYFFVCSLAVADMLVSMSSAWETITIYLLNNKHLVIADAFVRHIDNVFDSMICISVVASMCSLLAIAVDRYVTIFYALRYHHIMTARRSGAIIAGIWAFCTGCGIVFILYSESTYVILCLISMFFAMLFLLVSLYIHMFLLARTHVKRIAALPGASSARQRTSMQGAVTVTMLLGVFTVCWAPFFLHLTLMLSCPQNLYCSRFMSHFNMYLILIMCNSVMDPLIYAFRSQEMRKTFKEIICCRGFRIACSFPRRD
Quantity Name: pKi
Would you please state pKi, meaning minus log10 of the concentration in mol/L, as a bare number?

Exercise: Quick one: pKi of SYSMEHFRWGKPVGKKRRPVKVYPNGAEDESAEAFPLEF [ACTH, P01189] ?
Key: 7.34
